QUANTITY_KIND: melting point

c1ccc(-c2cc(Nc3nc(-c4ccccc4)nc4ccccc34)[nH]n2)cc1 [III-71] : 207 to 209 °C
CC(C)(C)OC(=O)NCCCc1cc(Nc2nc(-c3ccccc3)nc3ccccc23)[nH]n1 [III-80] : 199 to 200 °C
Cc1nc(-c2ccccc2C(F)(F)F)nc(Nc2n[nH]c3ccccc23)c1C [II-24] : 183 to 186 °C

Task item: Please look at this molecule and report its melting point: Cc1cc(Nc2nc(N3CCC(N4CCCC4)CC3)nc3ccccc23)[nH]n1 [III-113]
Reply: 191 °C

Task item: # return recorded melting point for entry Cc1cc(Nc2nc(N3CCCCCC3)nc3ccccc23)[nH]n1 [III-109]
Reply: 269 °C

Task item: Dear colleague, please send me the reported melting point for c1ccc2c(c1)CCCN2c1nc(Nc2cc(C3CC3)n[nH]2)c2ccccc2n1 [III-121] when you can.
Reply: 137 to 145 °C

Task item: Return melting point (reported value) for this molecule: c1ccc2c(Nc3cc(C4CC4)n[nH]3)nc(N3CCCCCC3)nc2c1 [III-117]
Reply: 199 to 200 °C

Task item: Determine from records and report melting point for N#Cc1cn[nH]c1Nc1nc(-c2ccccc2)nc2ccccc12 [III-103]
Reply: > 250 °C
